Target: PRC2 complex (EZH2 Y641F/EED/SUZ12/RbAp48/AEBP2) (Homo sapiens (Human), UniProt Q15910, Y641F)
Sequence (Q15910 whole entry Y641F): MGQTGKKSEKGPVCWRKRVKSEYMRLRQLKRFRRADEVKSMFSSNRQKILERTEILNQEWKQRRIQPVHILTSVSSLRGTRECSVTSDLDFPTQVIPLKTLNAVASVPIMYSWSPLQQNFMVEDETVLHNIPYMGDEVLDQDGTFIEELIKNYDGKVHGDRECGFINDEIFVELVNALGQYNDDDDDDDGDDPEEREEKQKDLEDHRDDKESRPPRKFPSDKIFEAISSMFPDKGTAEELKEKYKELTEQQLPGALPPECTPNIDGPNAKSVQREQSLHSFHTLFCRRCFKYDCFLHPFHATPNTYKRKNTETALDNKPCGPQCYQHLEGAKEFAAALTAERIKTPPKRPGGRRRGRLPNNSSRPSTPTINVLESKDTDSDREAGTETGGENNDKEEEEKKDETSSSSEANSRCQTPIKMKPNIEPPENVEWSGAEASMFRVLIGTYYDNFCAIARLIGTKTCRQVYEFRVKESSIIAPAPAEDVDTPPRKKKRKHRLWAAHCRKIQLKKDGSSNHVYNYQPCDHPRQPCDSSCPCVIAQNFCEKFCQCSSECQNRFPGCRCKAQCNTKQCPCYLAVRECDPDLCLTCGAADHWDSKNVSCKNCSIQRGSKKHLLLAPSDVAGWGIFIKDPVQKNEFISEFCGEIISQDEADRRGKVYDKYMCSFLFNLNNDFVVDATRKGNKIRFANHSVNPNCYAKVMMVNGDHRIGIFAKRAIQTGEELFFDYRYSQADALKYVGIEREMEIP
Sequence (O75530 whole entry partner): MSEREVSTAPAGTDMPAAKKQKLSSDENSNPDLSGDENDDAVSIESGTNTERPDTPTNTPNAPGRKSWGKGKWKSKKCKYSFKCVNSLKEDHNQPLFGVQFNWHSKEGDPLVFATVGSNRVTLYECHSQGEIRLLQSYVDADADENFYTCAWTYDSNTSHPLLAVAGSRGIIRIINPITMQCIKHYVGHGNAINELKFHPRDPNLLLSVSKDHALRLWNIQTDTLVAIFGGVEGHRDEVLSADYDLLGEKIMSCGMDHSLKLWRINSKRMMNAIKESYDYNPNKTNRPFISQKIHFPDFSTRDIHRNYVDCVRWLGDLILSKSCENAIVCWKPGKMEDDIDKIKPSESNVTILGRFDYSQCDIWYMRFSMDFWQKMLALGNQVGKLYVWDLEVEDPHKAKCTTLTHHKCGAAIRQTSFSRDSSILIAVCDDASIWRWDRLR
Sequence (Q15022 whole entry partner): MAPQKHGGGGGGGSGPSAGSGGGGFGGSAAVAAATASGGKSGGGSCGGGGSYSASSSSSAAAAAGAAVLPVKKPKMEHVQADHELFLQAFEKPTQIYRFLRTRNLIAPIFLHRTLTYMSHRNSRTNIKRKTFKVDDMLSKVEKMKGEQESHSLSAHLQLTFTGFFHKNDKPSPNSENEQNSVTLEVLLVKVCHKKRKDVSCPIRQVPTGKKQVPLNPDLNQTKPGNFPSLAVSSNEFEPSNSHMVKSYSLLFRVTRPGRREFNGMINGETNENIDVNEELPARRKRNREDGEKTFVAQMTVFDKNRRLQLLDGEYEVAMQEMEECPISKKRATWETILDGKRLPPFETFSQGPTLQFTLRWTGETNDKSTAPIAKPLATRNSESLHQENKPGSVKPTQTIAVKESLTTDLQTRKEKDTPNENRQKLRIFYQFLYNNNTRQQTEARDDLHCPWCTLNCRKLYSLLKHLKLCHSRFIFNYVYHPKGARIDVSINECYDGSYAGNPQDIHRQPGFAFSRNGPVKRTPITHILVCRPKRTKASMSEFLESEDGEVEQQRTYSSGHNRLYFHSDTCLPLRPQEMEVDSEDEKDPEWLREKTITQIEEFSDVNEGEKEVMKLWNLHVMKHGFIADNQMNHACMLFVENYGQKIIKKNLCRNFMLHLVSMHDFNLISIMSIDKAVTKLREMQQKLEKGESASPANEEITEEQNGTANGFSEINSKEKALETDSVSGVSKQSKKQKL
Sequence (Q09028 whole entry partner): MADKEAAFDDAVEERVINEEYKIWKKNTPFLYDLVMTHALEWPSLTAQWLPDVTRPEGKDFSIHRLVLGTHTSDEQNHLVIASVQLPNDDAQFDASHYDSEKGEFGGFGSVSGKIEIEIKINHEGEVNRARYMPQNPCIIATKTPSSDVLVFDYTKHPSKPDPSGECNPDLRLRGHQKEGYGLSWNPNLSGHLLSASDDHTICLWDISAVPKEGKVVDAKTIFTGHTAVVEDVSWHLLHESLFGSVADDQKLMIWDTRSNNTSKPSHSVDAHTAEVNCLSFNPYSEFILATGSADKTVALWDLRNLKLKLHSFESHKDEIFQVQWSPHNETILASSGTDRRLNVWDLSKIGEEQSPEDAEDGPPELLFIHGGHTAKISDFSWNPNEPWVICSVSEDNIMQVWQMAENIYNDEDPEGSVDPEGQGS
Sequence (Q6ZN18 whole entry partner): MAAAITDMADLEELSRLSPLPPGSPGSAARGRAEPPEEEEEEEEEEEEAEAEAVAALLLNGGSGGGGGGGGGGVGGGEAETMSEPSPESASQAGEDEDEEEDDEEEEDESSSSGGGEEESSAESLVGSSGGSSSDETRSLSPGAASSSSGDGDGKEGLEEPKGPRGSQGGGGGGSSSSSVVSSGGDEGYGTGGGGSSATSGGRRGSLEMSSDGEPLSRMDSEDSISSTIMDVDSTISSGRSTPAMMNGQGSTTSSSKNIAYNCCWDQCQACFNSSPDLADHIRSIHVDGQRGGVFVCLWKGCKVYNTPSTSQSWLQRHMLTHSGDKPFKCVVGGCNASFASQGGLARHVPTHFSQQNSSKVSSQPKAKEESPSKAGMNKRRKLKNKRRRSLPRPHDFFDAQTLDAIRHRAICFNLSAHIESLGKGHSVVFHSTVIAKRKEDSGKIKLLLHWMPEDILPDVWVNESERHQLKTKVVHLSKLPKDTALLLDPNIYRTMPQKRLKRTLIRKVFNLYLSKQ
Assay: Activity of a compound to PRC2 complex (EZH2 Y641F), HTRF
Details: read-out: IC50 (EZH2_Y641F); EZH2 Y641F PRC2 complex, HTRF; class symbols
Measured Attribute: IC50

Below are worked cases with known answers.
Compound: Cc1cc(C)c(CNC(=O)c2cc3cc(-c4ccn(C)n4)cn3c(C(C)N3CCOCC3)c2C)c(=O)[nH]1 (centres unmarked) [Example 85]
Endpoint Result: 0.1 to 1 µM
--
Compound: COc1cc(C)[nH]c(=O)c1CNC(=O)c1cc2c(-c3ccccc3)ccn2c(C(C)N2CCC(N(C)C)CC2)c1C (centres unmarked) [Example 129]
Endpoint Result: < 0.1 µM

I need IC50 for every entry listed below, if you could help.
1. Cc1cc(C)c(CNC(=O)c2cc3cc(-c4ccnn4C)cn3c(C(C)N3CCN(CC(F)(F)F)CC3)c2C)c(=O)[nH]1 (centres unmarked) [Example 84]
2. Cc1cc(C)c(CNC(=O)c2cc3cccn3c(C(C)Oc3ccc(N(C)C)cc3)c2C)c(=O)[nH]1 (centres unmarked) [Example 22]
3. Cc1cc(C)c(CNC(=O)c2cc3cncn3c(C(C)N3CCOCC3)c2C)c(=O)[nH]1 (centres unmarked) [Example 71]
4. COc1cc(C)[nH]c(=O)c1CNC(=O)c1cc2cc(-c3cncn3C)cn2c(C(C)N2CCC(N(C)C)CC2)c1C (centres unmarked) [Example 135]

0.1 to 1 µM
1 to 10 µM
< 0.1 µM
< 0.1 µM

For each of the compounds below, note its IC50.
1. Cc1cc(C)c(CNC(=O)c2cc3cccn3c(C(C)OCc3ccn(C)n3)c2C)c(=O)[nH]1 (centres unmarked) [Example 20]
2. CNc1ccc(-c2ccn3c([C@H](C)N4CCN(CC(F)(F)F)CC4)c(C)c(C(=O)NCc4c(OC)cc(C)[nH]c4=O)cc23)cn1 (single isomer, unassigned) [Compound 165]
3. Cc1cc(C)c(CNC(=O)c2cc3cccn3c(N(C)C3CCOCC3)c2C)c(=O)[nH]1 [Example 55]
4. COc1cc(-c2ccn3c(C(C)N4CCN(CC(F)(F)F)CC4)c(C)c(C(=O)NCc4c(OC)cc(C)[nH]c4=O)cc23)ccn1 (centres unmarked) [Compound 193]
5. Cc1cc(C)c(CNC(=O)c2cc3cc(Br)cn3c(C(C)N3CCC(N4CCCC4)CC3)c2C)c(=O)[nH]1 (centres unmarked) [Example 144]
6. COC(C)c1c(C)c(C(=O)NCc2c(C)cc(C)[nH]c2=O)cc2cccn12 (centres unmarked) [Example 1]
7. Cc1cc(C)c(CNC(=O)c2cc3cc(-c4cccc(CN5CCOCC5)c4)cn3c(C(C)N3CCOCC3)c2C)c(=O)[nH]1 (centres unmarked) [Example 80]
8. COc1c(CNC(=O)c2cc3c(-c4ccc(N)nc4)ccn3c(C(C)N3CCN(CC(F)(F)F)CC3)c2C)c(=O)[nH]n1C (centres unmarked) [Compound 187]

1. 0.1 to 1 µM
2. < 0.1 µM
3. 0.1 to 1 µM
4. < 0.1 µM
5. 0.1 to 1 µM
6. 0.1 to 1 µM
7. 0.1 to 1 µM
8. < 0.1 µM

---

Biological target: PRC2 complex (EZH2 Y641F/EED/SUZ12/RbAp48/AEBP2) (Homo sapiens (Human), UniProt Q15910, Y641F)
Test: Activity of a compound to PRC2 complex (EZH2 Y641F), HTRF
Conditions: read-out: IC50 (EZH2_Y641F); EZH2 Y641F PRC2 complex, HTRF; class symbols
Kindly state IC50 for each of the entries shown.

Examples with answers:
Molecule: Cc1cc(C)c(CNC(=O)c2cc3cc(-c4cccc(N5CCOCC5)c4)cn3c(C(C)N3CCOCC3)c2C)c(=O)[nH]1 (stereo not drawn) [Example 36]
IC50: < 100 nM

Molecule: C=CCOC(C)c1c(C)c(C(=O)NCc2c(C)cc(C)[nH]c2=O)cc2cccn12 (stereo not drawn) [Example 3]
IC50: 100 to 1000 nM

Molecule: COc1ccc(-c2cc3cc(C(=O)NCc4c(C)cc(C)[nH]c4=O)c(C)c(C(C)N4CCOCC4)n3c2)c(F)c1 (stereo not drawn) [Example 43]
IC50: < 100 nM

Molecule: COc1cc(-c2ccn3c([C@H](C)N4CCN(CC(F)(F)F)CC4)c(C)c(C(=O)NCc4c(OC)cc(C)[nH]c4=O)cc23)ccn1 (single isomer, unassigned) [Compound 194]
IC50: < 100 nM

Molecule: Cc1cc(C)c(CNC(=O)c2cc3cc(-c4ccc(N)nc4)cn3c(C(C)N3CCOCC3)c2C)c(=O)[nH]1 (stereo not drawn) [Example 89]
IC50: < 100 nM

Quick note, IC50 for COc1cc(C)[nH]c(=O)c1CNC(=O)c1cc2c(-c3ccnc(N(C)C)c3)ccn2c([C@H](C)N2CCN(CC(F)(F)F)CC2)c1C (single isomer, unassigned) [Compound 171] landed at < 100 nM

---

What pIC50 was measured for each of the following?
Target: PRC2 complex (EZH2 Y641F/EED/SUZ12/RbAp48/AEBP2) (Homo sapiens (Human), UniProt Q15910, Y641F)
Assay: Activity of a compound to PRC2 complex (EZH2 Y641F), HTRF
Details: read-out: IC50 (EZH2_Y641F); EZH2 Y641F PRC2 complex, HTRF; class symbols
pIC50: −log10 of the molar value.

Solved cases (5 shown):
Compound: CNc1ccc(-c2ccn3c([C@H](C)N4CCN(CC(F)(F)F)CC4)c(C)c(C(=O)NCc4c(OC)cc(C)[nH]c4=O)cc23)cn1 (single isomer, unassigned) [Compound 164]
Measured Attribute: pIC50
Endpoint Result: 6.00 to 7.00
--
Compound: COc1cc(C)[nH]c(=O)c1CNC(=O)c1cc2cc(Cl)cn2c(C(C)N2CCC(N(C)C)CC2)c1C (stereo not drawn) [Example 130]
Measured Attribute: pIC50
Endpoint Result: > 7.00
--
Compound: COc1cc(C)[nH]c(=O)c1CNC(=O)c1cc2c(-c3ccc(C)nc3C)ccn2c(C(C)N2CCN(CC(F)(F)F)CC2)c1C (stereo not drawn) [Compound 176]
Measured Attribute: pIC50
Endpoint Result: > 7.00
--
Compound: COc1cc(C)[nH]c(=O)c1CNC(=O)c1cc2c(-c3cc(C)nc(C)c3)ccn2c([C@H](C)N2CCN(CC(F)(F)F)CC2)c1C (single isomer, unassigned) [Compound 174]
Measured Attribute: pIC50
Endpoint Result: > 7.00
--
Compound: Cc1cc(C)c(CNC(=O)c2cc3cc(C(=O)N4CCOCC4)cn3c(C(C)N3CCOCC3)c2C)c(=O)[nH]1 (stereo not drawn) [Example 126]
Measured Attribute: pIC50
Endpoint Result: > 7.00

Just so you know, measured pIC50 for Cc1cc(C)c(CNC(=O)c2cc3cccn3c(C(C)OCc3c(F)cccc3F)c2C)c(=O)[nH]1 (stereo not drawn) [Example 13] came out at 6.00 to 7.00

---

So I've got a bunch of compounds here, and I need their pIC50 values.
Biological target: PRC2 complex (EZH2/EED/SUZ12/RbAp48/AEBP2) (Homo sapiens (Human))
Sequence (Q15910 whole entry): as the sequence (Q15910 whole entry Y641F) above, with F641Y counted along it
Sequence (O75530 whole entry partner): as the sequence (O75530 whole entry partner) above
Sequence (Q15022 whole entry partner): as the sequence (Q15022 whole entry partner) above
Sequence (Q09028 whole entry partner): as the sequence (Q09028 whole entry partner) above
Sequence (Q6ZN18 whole entry partner): as the sequence (Q6ZN18 whole entry partner) above
Experiment: Activity of a compound to PRC2 complex (EZH2 wild type), ELISA
Settings: class symbols
pIC50: −log10 of the molar value.

Completed entries (count: 5):
Compound: COc1cccc(COC(C)c2c(C)c(C(=O)NCc3c(C)cc(C)[nH]c3=O)cc3cccn23)c1 (stereo not shown)
Test Target: PRC2 complex (EZH2/EED/SUZ12/RbAp48/AEBP2) (Homo sapiens (Human))
pIC50: 6.00 to 7.00

Compound: Cc1cc(C)c(CNC(=O)c2cc3cccn3c(C(C)OCc3c(F)cccc3F)c2C)c(=O)[nH]1 (stereo not shown)
Test Target: PRC2 complex (EZH2/EED/SUZ12/RbAp48/AEBP2) (Homo sapiens (Human))
pIC50: 6.00 to 7.00

Compound: Cc1cc(C)c(CNC(=O)c2cc3cccn3c(C(C)c3ccccc3)c2C)c(=O)[nH]1 (stereo not shown)
Test Target: PRC2 complex (EZH2/EED/SUZ12/RbAp48/AEBP2) (Homo sapiens (Human))
pIC50: > 7.00

Compound: Cc1cc(C)c(CNC(=O)c2cc3c(-c4ccc(N)nc4)ccn3c([C@H](C)N3CCN(CC(F)(F)F)CC3)c2C)c(=O)[nH]1 (single isomer, unassigned)
Test Target: PRC2 complex (EZH2/EED/SUZ12/RbAp48/AEBP2) (Homo sapiens (Human))
pIC50: > 7.00

Compound: C#CCOC(C)c1c(C)c(C(=O)NCc2c(C)cc(C)[nH]c2=O)cc2cccn12 (stereo not shown)
Test Target: PRC2 complex (EZH2/EED/SUZ12/RbAp48/AEBP2) (Homo sapiens (Human))
pIC50: 6.00 to 7.00

Quick request: pIC50 for each listed item, please.
1. Cc1cc(C)c(CNC(=O)c2cc3cccn3c(C(C)OCc3ccn(C)n3)c2C)c(=O)[nH]1 (stereo not shown)
2. Cc1cc(C)c(CNC(=O)c2cc3cccn3c(C(C)OCc3nccs3)c2C)c(=O)[nH]1 (stereo not shown)

1. 6.00 to 7.00
2. 6.00 to 7.00

Values from patent US10968215B2
